Quick reference: Kd of the listed items.
biological target: HLA-A*68:01; experiment: IEDB peptide-MHC binding, purified MHC/competitive/radioactivity; filed as Kd, often an IC50 or EC50 that approximates it; bounds were set here for any values at or beyond the usual limits of such assays; conditions: source organism: Vaccinia virus WR

- seq_string: "FIRRKYLIY"
  Kd: "≥ 53.5 µM"

Q: So what's the measured Kd for this one? `KFISDNKKEY`
Result: ≥ 40.7 µM

Q: Sample `VAGTGVQFY` — what was its Kd?
Result: ≥ 77.7 µM

Q: State the recorded Kd for this entry: `SFLRKIGDK`
Result: ≥ 35 µM
